Target: T1, biotinylated recombinant human IL-12Rβ2 (produced in-house) (human, UniProt Q99665 24-622, random biotinylated)
T1 construct: also called hIL-12RB2; hIL12RB2
T1 sequence: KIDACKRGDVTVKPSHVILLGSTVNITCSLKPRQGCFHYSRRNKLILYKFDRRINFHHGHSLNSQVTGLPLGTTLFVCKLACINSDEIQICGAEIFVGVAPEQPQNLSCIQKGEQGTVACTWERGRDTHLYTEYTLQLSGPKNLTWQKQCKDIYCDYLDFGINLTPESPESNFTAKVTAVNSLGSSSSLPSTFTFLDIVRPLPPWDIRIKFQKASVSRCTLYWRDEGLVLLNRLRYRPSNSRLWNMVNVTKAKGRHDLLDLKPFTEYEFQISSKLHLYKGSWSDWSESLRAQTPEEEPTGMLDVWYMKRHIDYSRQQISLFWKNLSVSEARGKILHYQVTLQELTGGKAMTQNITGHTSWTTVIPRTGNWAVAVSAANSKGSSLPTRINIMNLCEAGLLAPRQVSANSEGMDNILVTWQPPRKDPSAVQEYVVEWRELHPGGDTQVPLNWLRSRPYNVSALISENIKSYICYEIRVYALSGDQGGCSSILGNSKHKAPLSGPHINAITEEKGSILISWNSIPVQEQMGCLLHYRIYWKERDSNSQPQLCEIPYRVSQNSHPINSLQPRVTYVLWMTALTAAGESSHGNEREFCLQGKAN
Assay: ELISA, P.E. VHH on biotinylated hIL-12RB2, signal ratio to control well
Below: a set of entries, each annotated with reported ELISA hIL12RB2/control.
observation type: ELISA hIL12RB2/control

1) anti-IL-12Rβ2 VHH clone 2CAMS52 (VHH, not shown: small tags and cut ends, tested as periplasmic extract; also called 20535; 2CAMSSZ) VHH: QVQLQESGGGLVQPGASLRLSCATSGPTLSTYAMGWFRQAPGKEREVVATISWSGGRVTYVDSVKGRFTISRDNAKNTAYLQMNRLRPDDTAVYTCAARESDYGAYDYWGQGTQVTVSS; 0.97
2) anti-IL-12Rβ2 VHH clone 3CAM57 (VHH, not shown: small tags and cut ends, tested as periplasmic extract; also called 20512; 3CAMS7) VHH: QVQLQESGGGLVQAGGSLRLSCTPSGRTFSTLAMGWFRQAPGKEREVVATISWSGGRTYYASSVKSRFTISRDNAKNTAYLQMNSLRPDDTAVYYCAARGTDYGAYDYWGQGTQVTVSS; 1.31
3) anti-IL-12Rβ2 VHH clone 3CAM1 (VHH, not shown: small tags and cut ends, tested as periplasmic extract) VHH: QVQLQESGGGLVQAGGSLRLSCAASGRTFGSHRMGWFRQAPGQEREFVAAIAWRGGTQYYTDSVKGRFTISRDNANNTVYLQMNSLKPEDAAVYYCVAGEGSSWGDITDPRRYVFWGQGTQVTVSS; 1.2
4) anti-IL-12Rβ2 VHH clone 3CAM65 (VHH, not shown: small tags and cut ends, tested as periplasmic extract; also called 20513) VHH: QVQLQESGGGLVQAGGSLRLSCAPSGRTFTTYVMGWFRQAPGKEREFVAHISWSGGRTYYADSVKGRFTISRDNAKNTSYLQMNSLKPEDTAVYYCAAARSDAVRIGYAEGYEYWGQGTQVTVSS; 1.25
